Test system: L1210 leukemia ip in BDF1 mice, survival T/C
Assay Name: NCI In Vivo Anticancer Drug Screen. Data for tumor model L1210 Leukemia (intraperitoneal) in B6D2F1 (BDF1) mice
Condition Description: endpoint: mean survival time; dose: 400.0 mg/kg/injection; schedule: Q04DX003 (ip); vehicle: Klucel (hydroxypropylcellulose) (HPC); higher = longer survival
Toxic doses and inconclusive results are not listed.
Quantity: T/C

Tell me the measured T/C of `O=C1CCCNc2ccccc21` , please.
98 % of control

Entry CC(C)C1CC(C)(C)c2cc(O)ccc2O1 (stereo not given) : reported T/C = ?
100 % of control

Bench note: what T/C did `CN(C)c1ccc(/C=C/C=C/C(=O)c2ccccc2)cc1` show?
93 % of control

For the molecule shown here, CCCCCCCCC1CCC(N)CC1 (stereo not given) , give the reported T/C.
98 % of control

# input molecule: `O=C(O)C1(C(=O)O)C=CCCC1` ; wanted: its T/C
107 % of control

Data request, read-out T/C, for CC1CCC(C(C)C)/C(=N/NC(=O)c2ccccc2)C1 (stereo not given)
102 % of control

Name the reported T/C value associated with the molecule `COC(=S)SCN(CSC(=S)OC)c1ccccc1Cl`
103 % of control

Quick check: T/C of `O=C(OCCCl)Oc1c(Cl)cc([N+](=O)[O-])cc1[N+](=O)[O-]` ?
86 % of control

Return reported T/C; argument: `CCOC(=O)COc1cc(Cl)c(S(=O)(=O)F)cc1Cl`
91 % of control

Bench note: what T/C did `CCC(=O)Nc1cc(Cl)ccc1C` show?
102 % of control

Look up T/C for this molecule: BrC1C2CC3C1C3C2c1ccccc1 (stereo not given)
103 % of control

Form field: reported T/C of CCOC(=O)CC(c1cccc2ccccc12)c1cccc2ccc3ccccc3c12 (stereo not given)
91 % of control

So what does the record say about T/C for `CCOC(=O)c1cc2nc(C(C)C)n(Cc3ccccc3)c2cc(C(=O)OCC)c1=O` ?
100 % of control

Name the recorded T/C for `ClCc1c(CCl)c2c(c3c1CCCC3)CCCC2` .
103 % of control

Which T/C is reported for this molecule? `CN(C)C(=S)SCc1c(Cl)c(Cl)c(Cl)c(Cl)c1Cl`
94 % of control

###

System: L1210 leukemia ip in BDF1 mice, survival T/C
Assay Name: NCI In Vivo Anticancer Drug Screen. Data for tumor model L1210 Leukemia (intraperitoneal) in B6D2F1 (BDF1) mice
Condition Description: endpoint: mean survival time; dose: 50.0 mg/kg/injection; schedule: Q01DX009 (ip); vehicle: saline; higher = longer survival
Protocol: The antitumor activity of compounds was measured in mice bearing transplantable tumors. Survival or tumor size were measured and the results are expressed as the measurement made in the treated group (T) divided by the measurement made in the vehicle treated control group (C). The tumor model used in this assay is L1210 Leukemia (intraperitoneal) in B6D2F1 (BDF1) mice
Inconclusive results and toxic doses are left out.
Quantity: T/C

Dear colleague, I am looking for the recorded T/C of the following compound: `CCNC(C)(C)C(=O)c1ccco1`
94 % of control

// lookup T/C for `Cc1cc(Cl)ccc1NC(=O)Nc1c(Oc2ccc(Cl)cc2)ccc(Cl)c1S(=O)(=O)O`
104 % of control

Request the reported T/C associated with `CCCCCCCCCCCCCCCC[N+]1([O-])CCOCC1`
98 % of control

Give its T/C value. Item: `COc1ccc(C(=O)NC[n+]2ccccc2)cc1`
98 % of control

Which T/C value belongs to CSc1ncc2n1C=CN(C(=O)c1ccc([N+](=O)[O-])cc1)C2O (stereo not given) ?
89 % of control

###

Test system: L1210 leukemia ip in BDF1 mice, survival T/C
Assay Name: NCI In Vivo Anticancer Drug Screen. Data for tumor model L1210 Leukemia (intraperitoneal) in B6D2F1 (BDF1) mice
Condition Description: endpoint: mean survival time; dose: 200.0 mg/kg/injection; schedule: Q04DX002 (ip); vehicle: saline with Tween-80; higher = longer survival
Toxic doses and inconclusive results are not listed.
Quantity: T/C

What does the data say about its T/C? Entry: `N#Cc1c(/N=C/c2cc(Cl)cc(Cl)c2O)sc2c1CCC2`
113 % of control

Reported T/C for BrCC(CCCc1ccccc1)CCc1ccccc1 (stereo not drawn) : what is it?
90 % of control

// lookup T/C for COc1ccc([P+](=S)SS[P+](=S)c2ccc(OC)cc2)cc1 (stereo not drawn)
97 % of control

Item under review: `CCCCC(=O)N1CCCCCC1` . Reported T/C?
87 % of control

Returns the measured T/C for the input compound. Input: `CCCCCCCCCCCCCCCC(=O)Nc1ccc(Cl)cc1`
94 % of control

Any idea what T/C was measured for `O=C1NC(=S)S/C1=C/C=C/c1ccccc1` ?
87 % of control

Consider the compound O=CC(O)C(O)C(OC1OC(CO)C(O)C(O)C1O)C(O)CO (stereo not drawn) (tested in a mixture with another compound) and give its measured T/C.
97 % of control [middle of 4 runs]

Report T/C for O=C1NC2c3ccccc3CCC12 (stereo not drawn) please.
100 % of control

###

Tested on: L1210 leukemia ip in BDF1 mice, survival T/C
Assay Name: NCI In Vivo Anticancer Drug Screen. Data for tumor model L1210 Leukemia (intraperitoneal) in B6D2F1 (BDF1) mice
Condition Description: endpoint: mean survival time; dose: 50.0 mg/kg/injection; schedule: Q01DX001 (ip); vehicle: saline; higher = longer survival
Toxic doses and inconclusive results are not listed.
Can you tell me T/C for the items I'm about to list?

Any idea what T/C was measured for CN(C)CCCN1CC2CCCC1O2 (stereo not given) ?
90 % of control

For the compound shown here, `Cc1cc(N)c(C(=O)O)cc1C` , give the reported T/C.
104 % of control

Reported T/C, compound COCC1CCCCC1O (stereo not given) : ____
101 % of control

// lookup T/C for `O=C(O)O.[Co].[NH-]CC[N-]CC[N-]CC[NH-]`
97 % of control

Any idea what its T/C is? The compound is `O=N[O-].O=N[O-].[Co].[NH-]CCN(CC[NH-])CC[NH-]`
108 % of control

###

Test system: L1210 leukemia ip in BDF1 mice, survival T/C
Assay Name: NCI In Vivo Anticancer Drug Screen. Data for tumor model L1210 Leukemia (intraperitoneal) in B6D2F1 (BDF1) mice
Condition Description: endpoint: mean survival time; dose: 400.0 mg/kg/injection; schedule: Q04DX003 (ip); vehicle: saline; higher = longer survival
Toxic doses and inconclusive results are not listed.
Quantity: T/C

If you can, please state the reported T/C value of `COc1ccc(/C=C/C(=O)c2ccc3cc(OC)c(OC)cc3c2)cc1OC` .
87 % of control

What value of measured T/C is listed for `CSc1nc2[nH]cc(C(=O)O)c(=O)c2c(=O)[nH]1` ?
91 % of control

Please report the recorded T/C for O=C1OCC2(CO)SC(c3ccccc3)NC12 (stereo not given) .
98 % of control

Field request: T/C | item: CC(=O)OC1CCC2(C)C(=CC(=O)C3=C2CCC2(C)C3CCC2C(C)/C=C/C(C)C(C)C)C1 (stereo not given)
91 % of control

Request the reported T/C associated with `Cc1nnnn1C`
88 % of control

Recorded T/C for `COc1ccc(/C=C/C(=O)c2ccc(OC)c(OC)c2)cc1O` , please?
95 % of control

Which T/C is listed for `CNC(=O)CO` ?
92 % of control

Which T/C value belongs to `NN1CCCCCC1` ?
94 % of control

Would you mind telling me what T/C value was observed for `c1ccc(CC(Cc2ccccc2)c2nc3ccccc3s2)cc1` ?
92 % of control

Need T/C, item `CCOC(=O)N1Cc2cc3cc(OC)ccc3nc2C1`
105 % of control

May I ask what T/C has been recorded for `CC(=N/NC(N)=S)/C(C)=N/NC(N)=S` ?
91 % of control

Quick check: T/C of COC(=O)CNC(=O)C1CSC(C)(C)N1C=O (stereo not given) ?
98 % of control

Requested read-out: T/C. Entry: OC1OC(CF)C(O)C(O)C1O (stereo not given)
118 % of control

Using the record for `COc1cc(N)ccc1/C=C/C(=O)O` , report its T/C.
92 % of control

What measured T/C goes with `CCOC(=O)C1CCCCC1` ?
91 % of control

###

Tested on: L1210 leukemia ip in BDF1 mice, survival T/C
Assay Name: NCI In Vivo Anticancer Drug Screen. Data for tumor model L1210 Leukemia (intraperitoneal) in B6D2F1 (BDF1) mice
Condition Description: endpoint: mean survival time; dose: 400.0 mg/kg/injection; schedule: Q01DX001 (ip); vehicle: saline; higher = longer survival
Inconclusive results and toxic doses are left out.
Quantity: T/C

Entry CCOC(=O)CCN(Cc1ccccc1)C(COC)C(=O)OCC (centres undefined) : reported T/C = ?
101 % of control

Given the entry `CCCCc1ccc2nc3cc4ccccc4cc3nc2c1` , report its measured T/C.
110 % of control

Query: T/C; subject: `C/C(=C\c1ccccc1)c1ccccc1`
101 % of control

Can you look up the measured T/C of OCC(O)C(O)C(O)C(O)C(c1ccccc1)c1ccccc1 (centres undefined) for me?
101 % of control
